tested system: T1, HER2 (epidermal growth factor receptor 2) on N87 cells (UniProt P04626 23-1255, limits assumed)
T1 construct: whole, on cells; N87 cells are used as HER2-positive cells; also called HER2-positive cells (N87); HER2-expressing cells
assay info: saturation binding to N87 cells, Scatchard plot, apparent Kd; HBP3 particle
Where no end group is shown, it is not given here. Side-chain parts run from the residue outwards. maleimide = maleimide group (reactive functional group for coupling a ligand)
measured parameter: Kd (nM)

>>> value_measured("MARSGLGGKGSC([maleimide-PEG 300-iron oxide nanoparticle 200 nm]) (not fully specified) [HBP3-EO-NP-200: HER2-binding peptide-immobilized 200-nm particle containing an iron oxide particle]")
0.49
